System: SK-OV-3 ovarian
Assay: NCI tumour cell line growth inhibition, 48 h
GI50 for assorted compounds

[[record]]
compound = "COc1ccc2nc3cc(Cl)ccc3c(NCCCNCCO)c2c1"
result = "635 nM"

[[record]]
compound = "CC1CC2C3CCC4=CC(=O)C=CC4(C)C3(F)C(O)CC2(C)C1(O)C(=O)COP(=O)(O)O (configuration not stated)"
result = "> 500000 nM"


Hello, I am looking for reported GI50 with SK-OV-3 ovarian for CCN(CC)c1ccc2nc3ccc(N=Nc4ccc(N(C)C)cc4)cc3[n+](-c3ccccc3)c2c1 . Could you help?
390 nM

And then CO[C@H]1C[C@@H]2CC[C@@H](C)[C@@](O)(O2)C(=O)C(=O)N2CCCC[C@H]2C(=O)O[C@H]([C@H](C)C[C@@H]2CC[C@@H](OC(=O)C(C)(CO)CO)[C@H](OC)C2)CC(=O)[C@H](C)/C=C(\C)[C@@H](O)[C@@H](OC)C(=O)[C@H](C)C[C@H](C)\C=C/C=C/C=C/1C , what is it?
1.39 nM

Subsequent entry: O=C(CS(=O)(=O)c1nc2ccccc2nc1-c1ccccc1)Nc1ccc(F)cc1
> 100000 nM
